# maps each entry to its EC50
Target: T1, ectodomain of human CD98hc (human, UniProt P08195 105-529)
T1 chain: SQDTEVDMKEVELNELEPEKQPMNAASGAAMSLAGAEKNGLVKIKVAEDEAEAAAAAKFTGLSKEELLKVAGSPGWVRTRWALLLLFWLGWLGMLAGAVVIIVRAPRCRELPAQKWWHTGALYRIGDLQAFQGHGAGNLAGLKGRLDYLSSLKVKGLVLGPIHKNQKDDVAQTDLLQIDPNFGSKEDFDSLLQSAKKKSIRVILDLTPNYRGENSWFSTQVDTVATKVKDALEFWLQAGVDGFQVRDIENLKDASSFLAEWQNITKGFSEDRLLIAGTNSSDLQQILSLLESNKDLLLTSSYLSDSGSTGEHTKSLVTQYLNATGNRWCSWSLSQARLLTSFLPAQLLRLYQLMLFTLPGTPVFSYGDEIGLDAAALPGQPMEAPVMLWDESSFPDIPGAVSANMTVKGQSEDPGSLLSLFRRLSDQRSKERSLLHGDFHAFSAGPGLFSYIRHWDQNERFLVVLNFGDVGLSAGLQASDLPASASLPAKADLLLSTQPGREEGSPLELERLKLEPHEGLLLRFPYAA
Test: ELISA, VNAR-hFc titrated on coated human CD98hc
// return numeric value only (unit: nM, not printed)

| binder | measured.result |
| --- | --- |
| F12 variant F12-G04 as VNAR-hFc fusion (Fc fusion, not shown: human IgG1 Fc (hinge, CH2 and CH3) as encoded by vector pFUSE-hIgG1e3-Fc2) ARVDQTPQTITKEEGESLTINCVLRVHGRALASTSWYRKKSGSTREETISKGGRYVETVNSGSKSFSLRINDLTVEDSGTYRCNVNGLSSGDIEGVKKIDVYGDGTAVTVNA | 30 |

Please list EC50 recorded for the binder F12 variant F12-E03 as VNAR-hFc fusion (Fc fusion, not shown: human IgG1 Fc (hinge, CH2 and CH3) as encoded by vector pFUSE-hIgG1e3-Fc2) ARVDQTPQTITKEEGESLTINCVLRVHGRALASTSWYRKKSGSTREETISKGGRYVETVNSGSKSFSLRINDLTVEDSGTYRCNVNGLSSGDQEGVKKIDVYGDGTAVTVNA
40

Please list EC50 recorded for the binder F12 variant F12-C01 as VNAR-hFc fusion (Fc fusion, not shown: human IgG1 Fc (hinge, CH2 and CH3) as encoded by vector pFUSE-hIgG1e3-Fc2) ARVDQTPQTITKEEGESLTINCVLRVHGRALASTSWYRKKSGSTREETISKGGRYVETVNSGSKSFSLRINDLTVEDSGTYRCNVYGLSSGDSEGVKKIDVYGDGTAVTVNA
30

Please list EC50 recorded for the binder F12 variant F12-B12 as VNAR-hFc fusion (Fc fusion, not shown: human IgG1 Fc (hinge, CH2 and CH3) as encoded by vector pFUSE-hIgG1e3-Fc2) ARVDQTPQTITKEEGESLTINCVLRVHGRALASTSWYRKKSGSTREETISKGGRYVETVNSGSKSFSLRINDLTVEDSGTYRCNVNGLSSGDIEGVKKLDVYGDGTAVTVNA
10

// provenance: patent US20250263502A1
